target: S-adenosylmethionine decarboxylase-like protein (ADL; putative S-adenosylmethionine decarboxylase-like proenzyme) (Leishmania donovani); construct: 894 bp L. donovani ADL gene in pQE30, 6×His-ADL, ~33 kDa, dimer; assay: tryptophan fluorescence quenching titration (saturation isotherm); supported by far-UV CD
Sequence (E9BM59 1-297): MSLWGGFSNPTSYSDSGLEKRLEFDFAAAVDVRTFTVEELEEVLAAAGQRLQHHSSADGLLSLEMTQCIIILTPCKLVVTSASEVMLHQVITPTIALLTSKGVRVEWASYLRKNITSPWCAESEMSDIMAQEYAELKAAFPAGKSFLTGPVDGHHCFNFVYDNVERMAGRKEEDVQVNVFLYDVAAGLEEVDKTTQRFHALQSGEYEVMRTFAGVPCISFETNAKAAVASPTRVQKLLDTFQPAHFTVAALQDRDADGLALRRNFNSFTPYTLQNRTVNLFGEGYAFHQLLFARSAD
Measured Metric: pKd
Scale: pKd equals -log10([C]), with [C] in mol/L.

// query Reported pKd, compound C[S+](CC[C@H](N)C(=O)[O-])C[C@H]1O[C@@H](n2cnc3c(N)ncnc32)[C@H](O)[C@@H]1O (stereo partly shown) : ____
// result 4.29
